target: TNFR1
Sequence (P19438 whole entry): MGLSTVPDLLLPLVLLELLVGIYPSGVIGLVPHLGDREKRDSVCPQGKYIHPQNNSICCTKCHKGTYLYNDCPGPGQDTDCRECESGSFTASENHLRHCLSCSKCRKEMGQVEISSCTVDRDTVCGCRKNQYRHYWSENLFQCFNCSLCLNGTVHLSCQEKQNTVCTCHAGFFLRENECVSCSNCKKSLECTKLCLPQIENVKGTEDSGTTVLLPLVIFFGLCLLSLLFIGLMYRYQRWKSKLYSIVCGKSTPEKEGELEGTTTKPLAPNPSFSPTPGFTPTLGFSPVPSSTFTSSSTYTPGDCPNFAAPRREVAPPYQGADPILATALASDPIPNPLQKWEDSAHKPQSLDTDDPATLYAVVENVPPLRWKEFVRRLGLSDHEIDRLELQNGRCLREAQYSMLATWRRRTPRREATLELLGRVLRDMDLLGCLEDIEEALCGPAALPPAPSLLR
Property Name: Kd (µM)
Quick note: give the figure in µM, leave out the unit.

// query Value lookup for Kd; key = DEQHLETELH (modifications not checked) [selective TNFR1 antagonist peptide Hydrostatin-SN10]
// result 2.77
